Assay: method code SF-AS, from DOI: 10.1002/(sici)1521-3897(199907)341:5<499::aid-prac499>3.0.co;2-7
Conditions: pH 7.4
REPORTED_PROPERTY: logD

Study these solved cases before continuing.
SMILES_STRING: COc1ccccc1-n1nnnc1N
VAL: 0.56
//
SMILES_STRING: Nc1nnnn1-c1ccc(Cl)cc1
VAL: 1.41
//
SMILES_STRING: Nc1nnnn1-c1ccc(Br)cc1
VAL: 1.64
//
SMILES_STRING: Cc1ccc(-n2nnnc2N)cc1Cl
VAL: 1.89
//
SMILES_STRING: Nc1nnnn1-c1ccc(Cl)cc1Cl
VAL: 1.63
//
SMILES_STRING: COc1ccc(-n2nnnc2N)cc1
VAL: 0.85

P. Nc1nnnn1-c1ccccc1Cl
Q. Nc1nnnn1-c1cccc(Cl)c1
Query block: Among P and Q , which shows a numerically higher logD result? Kindly state the label of the option you pick.
Result block: Q
(Q: 1.44, P: 0.87)

P. Nc1nnnn1-c1ccc(O)cc1
Q. Nc1nnnn1-c1ccc(F)cc1
R. Nc1nnnn1-c1cccc2ccccc12
Query block: Put these in order: smallest logD first, largest last. Please list the labels in the order you were asked to rank them.
Result block: P, Q, R
(P: 0.33, Q: 0.75, R: 1.72)

* * *

Test: method code SF-AS, from DOI: 10.1002/(sici)1521-3897(199907)341:5<499::aid-prac499>3.0.co;2-7
Conditions: pH 7.4
REPORTED_PROPERTY: logD

Study these solved cases before continuing.
SMILES_STRING: Nc1nnnn1-c1ccc([N+](=O)[O-])cc1
VAL: 0.77
--
SMILES_STRING: Nc1nnnn1-c1cc(Cl)c(Cl)cc1Cl
VAL: 2.3

1. Nc1nnnn1-c1ccc2ccccc2c1
2. CCOc1ccc(-n2nnnc2N)cc1
Query block: Among 1 and 2 , which shows a numerically higher logD result? Kindly state the label of the option you pick.
Result block: 1
(1: 2.08, 2: 1.32)

A. Nc1nnnn1-c1ccccc1
B. Cc1cccc(-n2nnnc2N)c1
Query block: Among A and B , which shows a numerically higher logD result? Kindly state the label of the option you pick.
Result block: B

* * *

Assay: method code SF-AS, from DOI: 10.1002/(sici)1521-3897(199907)341:5<499::aid-prac499>3.0.co;2-7
Settings: pH 7.4
REPORTED_PROPERTY: logD

1. Nc1nnnn1-c1ccc(Cl)c(Cl)c1
2. Nc1nnnn1-c1cccc(O)c1
Query block: Among 1 and 2 , which shows a numerically higher logD result? Kindly state the label of the option you pick.
Result block: 1

* * *

Assay: method code SF-AS, from DOI: 10.1002/(sici)1521-3897(199907)341:5<499::aid-prac499>3.0.co;2-7
Details: pH 7.4
REPORTED_PROPERTY: logD

SMILES_STRING: Nc1nnnn1-c1cc(Cl)ccc1Cl
VAL: 1.61
--
SMILES_STRING: Nc1nnnn1-c1c(Cl)cccc1Cl
VAL: 1.56
--
SMILES_STRING: Cc1ccc(C)c(-n2nnnc2N)c1
VAL: 1.46
